# Assay method text: refractive index (Na D-line) (dimensionless); wn = mass fraction of the nth substance listed
# Conditions: 293.15 K; 101 kPa; Liquid; Standard Abbe refractometry; w1 = 0.2
refractive index values for the molecules below.
Measured attribute: refractive index

| Molecule | Numeric value |
| --- | --- |
| CCCCCCCC[N+](CC)(CC)CC.F[P-](F)(F)(F)(F)F [N,N,N-triethyl-N-octylammonium hexafluorophosphate] + O=S(=O)(O)C(F)(F)F | 1.3562 |
| CCCCCC[N+](CC)(CC)CC.F[P-](F)(F)(F)(F)F [N,N,N-triethyl-N-hexylammonium hexafluorophosphate] + O=S(=O)(O)C(F)(F)F | 1.3549 |
| CCCCCCCC[N+](CC)(CC)CC.F[B-](F)(F)F [N,N,N-triethyl-N-octylammonium tetrafluoroborate] + O=S(=O)(O)C(F)(F)F | 1.3583 |

* * *

# Assay method text: refractive index (Na D-line) (dimensionless); wn = mass fraction of the nth substance listed
# Conditions: 293.15 K; 101 kPa; Liquid; Standard Abbe refractometry; w1 = 0.2

| Compound | refractive index |
| --- | --- |
| CC[N+](CC)(CC)CC.F[P-](F)(F)(F)(F)F [tetraethylammonium hexafluorophosphate] + O=S(=O)(O)C(F)(F)F | 1.3499 |
| CC[N+](CC)(CC)CC.F[B-](F)(F)F [tetraethylammonium tetrafluoroborate] + O=S(=O)(O)C(F)(F)F | 1.3512 |
| CC[N+](CC)(CC)CC.[F][Sb-]([F])([F])([F])([F])[F] [tetraethylammonium hexafluoroantimonate] + O=S(=O)(O)C(F)(F)F | 1.3408 |
| CCCC[N+](CC)(CC)CC.F[B-](F)(F)F [N,N,N-triethyl-N-butylammonium tetrafluoroborate] + O=S(=O)(O)C(F)(F)F | 1.3543 |
